Where do these numbers come from? They come from patent US6780850.

- system.name: alpha-thrombin (active site blocked with fluorescein-PPACK) (Homo sapiens, UniProt P00734;P00734 P00734:328-363,P00734:364-622)
- method.notes: fluorometric titration; duplicate measurement gave 110 nM; 20 mM Tris, 150 mM NaCl, pH 7.4
reported.metric: Kd (nM)

1) AGTCCGTGGTAGGGCAGGTTGGGGTGACT (ssDNA, 3'-biotin-streptavidin) [ODN 2f] :: 89
